Target: T1, Human latent myostatin (human, UniProt O14793 25-266; O14793 267-375)
T1 construct: Biotinylated in the ELISAs; also called human myostatin latent form
T1 sequence 1: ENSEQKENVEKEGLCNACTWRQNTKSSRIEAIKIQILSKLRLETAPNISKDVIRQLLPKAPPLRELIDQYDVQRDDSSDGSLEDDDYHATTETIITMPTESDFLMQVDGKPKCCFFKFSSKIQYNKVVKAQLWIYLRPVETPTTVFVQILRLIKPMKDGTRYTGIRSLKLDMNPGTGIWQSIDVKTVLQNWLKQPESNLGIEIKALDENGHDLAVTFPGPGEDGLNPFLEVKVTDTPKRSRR
T1 sequence 2: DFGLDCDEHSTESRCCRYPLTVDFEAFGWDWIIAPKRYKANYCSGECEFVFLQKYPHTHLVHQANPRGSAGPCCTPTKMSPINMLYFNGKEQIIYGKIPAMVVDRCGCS
Assay: SPR (BIACORE T200), 37 C, pH7.4, avidity condition (capture 185 RU), 1:1 fit; pH 7.4

binder	unit_abbreviation	Kd
MS_M103205H781-SG1/M103202L813-SK1 (antibody, human IgG1, kappa, V domains shown, also called MS1032LO03-SG1; MSLO-03) VH: QVTLKESGPVLVKPTETLTLTCTVSGIDLSHTDISWVRQAPGKGLEWVGIISYAGSTYYMSWAKGRLTISKDTSKNQVVLTMTNMDPVDTATYYCARGVPAYSHGGDLWGQGTLVTVSS VL: DIVMTQSPATLSLSPGERATLSCQTSQSVYHDNWLSWFQQKPGQPPKLLIYWASTLASGVPSRFSGSGSGTDFTLTISSLQPEDAATYYCAGGYGGGRYAFGQGTKVEIKR	nM	0.196
